Target: Amyloid-beta precursor protein (Homo sapiens)
Assay: Inhibition of amyloid beta (1 to 42) (unknown origin) oligomerization assessed as fold change in half-life of aggregation extension/reduction at 1:1 Abeta:compound ratio by thioflavin T assay based fluorescence microscopy
Active and inactive are the calls of the source. The calls are words filed in the database; no cut-off is given here. Numbered stars: 1 amine (or outer) side, 2 acyl side, 3 side chain; on linkers, the order of the positions; unused ones are H or OH. Square brackets hold non-standard residues; d marks the D form. Peptide text beside a SMILES is read from it. * marks the point of attachment. X1 = O=C(CCOC[C@H]1O[C@@H](OCCCN[*:1])[C@H](O)[C@@H](O)[C@@H]1O)[*:2]; X2 = O=C(CCOC[C@H]1O[C@@H](OCCN[*:1])[C@H](O)[C@@H](O)[C@@H]1O)[*:2]; Boc = CC(C)(C)OC(=O)*
observable: fold change in aggregation half-life

Sample COC(=O)[C@H](CC(C)C)NC(=O)[C@@H](NC(=O)CCOC[C@H]1O[C@@H](OCCNC(=O)[C@@H](NC(=O)[C@H](C)NC(=O)OC(C)(C)C)C(C)C)[C@H](O)[C@@H](O)[C@@H]1O)C(C)C (Boc-AV[X2]VL-OMe) — what was its fold change in aggregation half-life?
inactive

Would you kindly share the measured fold change in aggregation half-life for COC(=O)[C@H](CC(C)C)NC(=O)[C@@H](NC(=O)CCOC[C@H]1O[C@@H](OCCCNC(=O)[C@@H](NC(=O)[C@H](C)NC(=O)OC(C)(C)C)C(C)C)[C@H](O)[C@@H](O)[C@@H]1O)C(C)C (Boc-AV[X1]VL-OMe) ?
inactive

====

Target: Amyloid-beta precursor protein (Homo sapiens) (UniProt P05067)
Sequence (P05067 whole entry): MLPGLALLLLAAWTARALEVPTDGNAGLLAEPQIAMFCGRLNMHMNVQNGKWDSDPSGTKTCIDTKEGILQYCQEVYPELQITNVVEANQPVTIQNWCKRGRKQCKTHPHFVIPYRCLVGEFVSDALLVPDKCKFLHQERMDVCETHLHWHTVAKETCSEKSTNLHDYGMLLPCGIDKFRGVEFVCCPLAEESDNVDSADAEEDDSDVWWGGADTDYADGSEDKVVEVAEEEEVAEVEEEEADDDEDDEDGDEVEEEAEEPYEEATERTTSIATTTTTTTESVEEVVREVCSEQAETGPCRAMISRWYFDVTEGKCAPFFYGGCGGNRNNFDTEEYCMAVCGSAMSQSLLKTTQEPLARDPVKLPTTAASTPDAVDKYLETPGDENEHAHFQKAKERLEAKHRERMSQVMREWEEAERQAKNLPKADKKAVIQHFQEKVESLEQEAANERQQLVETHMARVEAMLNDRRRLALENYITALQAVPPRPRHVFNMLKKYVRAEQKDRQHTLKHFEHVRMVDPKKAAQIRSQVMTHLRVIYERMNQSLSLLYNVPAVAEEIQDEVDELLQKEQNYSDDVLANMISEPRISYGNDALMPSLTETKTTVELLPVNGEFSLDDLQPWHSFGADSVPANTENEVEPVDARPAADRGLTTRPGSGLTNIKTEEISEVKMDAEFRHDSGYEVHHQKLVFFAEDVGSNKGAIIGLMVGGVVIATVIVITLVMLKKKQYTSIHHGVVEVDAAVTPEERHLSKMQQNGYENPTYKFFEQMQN
Experiment: Inhibition of amyloid beta (1 to 42) (unknown origin) oligomerization assessed as reduction in intensity of experimental fluorescence plateau at 1:10 Abeta:compound ratio by thioflavin T assay based fluorescence microscopy
Calls of active or inactive are those of the source. No cut-off for these calls is given here. Numbered stars: 1 amine (or outer) side, 2 acyl side, 3 side chain; on linkers, the order of the positions; unused ones are H or OH. Square brackets hold non-standard residues; d marks the D form. Peptide text beside a SMILES is read from it. * marks the point of attachment. X1 = O=C(CCOC[C@H]1O[C@@H](OCCCN[*:1])[C@H](O)[C@@H](O)[C@@H]1O)[*:2]; X2 = O=C(CCOC[C@H]1O[C@@H](OCCN[*:1])[C@H](O)[C@@H](O)[C@@H]1O)[*:2]; X3 = O=C(CCOC[C@H]1O[C@H](OCCN[*:1])[C@H](O)[C@@H](O)[C@@H]1O)[*:2]; Boc = CC(C)(C)OC(=O)*
observable: Activity

As a guide, the following entries are already answered.
# lookup: Activity of COC(=O)[C@H](CC(C)C)NC(=O)[C@@H](NC(=O)CCOC[C@H]1O[C@@H](OCCCNC(=O)[C@@H](NC(=O)[C@H](C)NC(=O)OC(C)(C)C)C(C)C)[C@H](OC(C)=O)[C@@H](OC(C)=O)[C@@H]1OC(C)=O)C(C)C
inactive

Please look up its Activity: COC(=O)[C@H](CC(C)C)NC(=O)[C@@H](NC(=O)CCOC[C@H]1O[C@@H](OCCCNC(=O)[C@@H](NC(=O)[C@H](C)NC(=O)OC(C)(C)C)C(C)C)[C@H](O)[C@@H](O)[C@@H]1O)C(C)C (Boc-AV[X1]VL-OMe)
37%

For the compound COC(=O)[C@H](CC(C)C)NC(=O)[C@@H](NC(=O)CCOC[C@H]1OC(O)[C@H](O)[C@@H](O)[C@@H]1O)C(C)C (some centres not stated) , what Activity is on record?
inactive

Query: Activity; subject: COC(=O)[C@H](CC(C)C)NC(=O)[C@@H](NC(=O)OC(C)(C)C)C(C)C (Boc-Val-Leu-OMe)
inactive

Give the measured Activity of OC[C@H]1OC(O)[C@H](O)[C@@H](O)[C@@H]1O (some centres not stated) .
inactive

Query (compound): COC(=O)[C@H](CC(C)C)NC(=O)[C@@H](NC(=O)CCOC[C@H]1O[C@@H](OCCNC(=O)[C@@H](NC(=O)[C@H](C)NC(=O)OC(C)(C)C)C(C)C)[C@H](O)[C@@H](O)[C@@H]1O)C(C)C (Boc-AV[X2]VL-OMe) ; field requested: Activity
29%

Next:
Which Activity is reported for this compound? COC(=O)[C@H](CC(C)C)NC(=O)[C@@H](NC(=O)CCOC[C@H]1O[C@H](OCCNC(=O)[C@@H](NC(=O)[C@H](C)NC(=O)OC(C)(C)C)C(C)C)[C@H](O)[C@@H](O)[C@@H]1O)C(C)C (Boc-AV[X3]VL-OMe)
inactive

Find the recorded Activity belonging to COC(=O)[C@H](CC(C)C)NC(=O)[C@@H](N)C(C)C (H-Val-Leu-OMe) and report it.
inactive

====

Molecular target: Amyloid-beta precursor protein (Homo sapiens)
Test: Inhibition of amyloid beta (1 to 42) (unknown origin) oligomerization assessed as fold change in half-life of aggregation extension/reduction at 1:10 Abeta:compound ratio by thioflavin T assay based fluorescence microscopy
The source made the active and inactive calls. The rule behind the calls is not given here. Numbered stars: 1 amine (or outer) side, 2 acyl side, 3 side chain; on linkers, the order of the positions; unused ones are H or OH. Square brackets hold non-standard residues; d marks the D form. Peptide text beside a SMILES is read from it. * marks the point of attachment. X1 = O=C(CCOC[C@H]1O[C@@H](OCCCN[*:1])[C@H](O)[C@@H](O)[C@@H]1O)[*:2]; X2 = O=C(CCOC[C@H]1O[C@@H](OCCN[*:1])[C@H](O)[C@@H](O)[C@@H]1O)[*:2]; X4 = O=C(CCOC[C@H]1O[C@H](OCCCN[*:1])[C@H](O)[C@@H](O)[C@@H]1O)[*:2]; Boc = CC(C)(C)OC(=O)*
observable: fold change (FC)

Returns the measured fold change (FC) for the input compound. Input: COC(=O)[C@H](CC(C)C)NC(=O)[C@@H](NC(=O)CCOC[C@H]1O[C@@H](OCCCNC(=O)[C@@H](NC(=O)[C@H](C)N)C(C)C)[C@H](O)[C@@H](O)[C@@H]1O)C(C)C (H-AV[X1]VL-OMe)
2.8

# get_value(readout='fold change (FC)', item= COC(=O)[C@H](CC(C)C)NC(=O)[C@@H](NC(=O)CCOC[C@H]1O[C@@H](OCCCNC(=O)[C@@H](NC(=O)[C@H](C)NC(=O)OC(C)(C)C)C(C)C)[C@H](OCc2ccccc2)[C@@H](OCc2ccccc2)[C@@H]1OCc1ccccc1)C(C)C )
0.7

Dear colleague, I am looking for the recorded fold change (FC) of the following compound: COC(=O)[C@H](CC(C)C)NC(=O)[C@@H](NC(=O)CCOC[C@H]1O[C@@H](OCCCNC(=O)[C@@H](NC(=O)[C@H](C)NC(=O)OC(C)(C)C)C(C)C)[C@H](O)[C@@H](O)[C@@H]1O)C(C)C (Boc-AV[X1]VL-OMe)
1.9

# lookup: fold change (FC) of COC(=O)[C@H](CC(C)C)NC(=O)[C@@H](NC(=O)CCOC[C@H]1O[C@@H](OCCNC(=O)[C@@H](NC(=O)[C@H](C)NC(=O)OC(C)(C)C)C(C)C)[C@H](O)[C@@H](O)[C@@H]1O)C(C)C (Boc-AV[X2]VL-OMe)
1.8

// returns reported fold change (FC) for input COC(=O)[C@H](CC(C)C)NC(=O)[C@@H](NC(=O)CCOC[C@H]1O[C@H](OCCCNC(=O)[C@@H](NC(=O)[C@H](C)NC(=O)OC(C)(C)C)C(C)C)[C@H](O)[C@@H](O)[C@@H]1O)C(C)C (Boc-AV[X4]VL-OMe)
inactive

Further cases:
Consider the compound COC(=O)[C@H](CC(C)C)NC(=O)[C@@H](NC(=O)CCOC[C@H]1O[C@@H](OCCNC(=O)[C@@H](NC(=O)[C@H](C)N)C(C)C)[C@H](O)[C@@H](O)[C@@H]1O)C(C)C (H-AV[X2]VL-OMe) and give its measured fold change (FC).
inactive

Request the reported fold change (FC) associated with COC(=O)[C@H](CC(C)C)NC(=O)[C@@H](NC(=O)OC(C)(C)C)C(C)C (Boc-Val-Leu-OMe)
inactive

====

Molecular target: UniProt:P05067
Experiment: Inhibition of amyloid beta (1 to 42) (unknown origin) oligomerization assessed as fold change in half-life of aggregation extension/reduction at 1:10 Abeta:compound ratio by thioflavin T assay based fluorescence microscopy
observable: fold change (FC)

Request - read-out fold change (FC) | tested on UniProt:P05067 | compound COC(=O)[C@H](CC(C)C)NC(=O)[C@@H](NC(=O)CCOC[C@H]1OC(O)[C@H](OCc2ccccc2)[C@@H](OCc2ccccc2)[C@@H]1OCc1ccccc1)C(C)C (stereo partly drawn)
0.8

Consider the additional compound presented here.
# query: fold change (FC) | item COC(=O)[C@H](CC(C)C)NC(=O)[C@@H](NC(=O)CCOC[C@H]1O[C@@H](OCCNC(=O)[C@@H](NC(=O)[C@H](C)NC(=O)OC(C)(C)C)C(C)C)[C@H](OCc2ccccc2)[C@@H](OCc2ccccc2)[C@@H]1OCc1ccccc1)C(C)C | system: UniProt:P05067
0.8
